Reported melting point values are given for each entry in this list.

Take a look at these entries with their results.
• CCCCc1ccc(N(Cc2ccc(N(C)C)cc2)C(=O)C2CCCc3c(O)cccc32)cc1 (stereo unspecified) = 138 °C
• CC(=O)N[C@@H](CO)C(=O)NCc1ccccc1 = 147 to 148 °C
• Cc1ccc(C(O)(Cn2ccnc2)C(C)(C)C)cc1 (stereo unspecified) = 135 to 137 °C
• O=C(O)C(Cc1ccccc1)Oc1ccc(-c2ccc(-c3c(Cc4ccccc4)sc4ccccc34)cc2)cc1 (stereo unspecified) = 165 to 167 °C
• O=C(O)CCc1cn(Cc2cccc(C(=O)NCCc3ccccn3)c2)nc1-c1ccccc1 = 166 to 167 °C
• COc1cc(OCc2ccccc2)cc(Cl)c1Cl = 79 to 81 °C
• COC(=O)C1=C(C)NC(c2sc(C)nc2C)=NC1c1ccc(F)cc1Cl (stereo unspecified) = 116 to 118 °C
• CN(C)CCNC(=O)C(=O)c1ccc(OCCOc2ccc3ccccc3c2)cc1 = 102 to 104 °C

Q: So what's the measured melting point for this one? Cc1c(-c2ccccn2)[nH]c2ncnc(Nc3cccc(Cl)c3)c12
Ans: 171 to 172 °C

Q: So what's the measured melting point for this one? CCN1CCCCC1CNS(=O)(=O)c1ccc(Nc2ccnc3cc(Cl)ccc23)cc1 (stereo unspecified)
Ans: 203 to 205 °C

Q: So what's the measured melting point for this one? c1ccc(-c2nn3c(c2-c2ccc4nsnc4c2)CCC3)nc1
Ans: 184 to 186 °C

Q: So what's the measured melting point for this one? CC(C=O)n1nnc2ccc(Oc3cc(F)c(C(F)(F)F)c(Cl)c3)cc21 (stereo unspecified)
Ans: 107 to 108 °C

Q: So what's the measured melting point for this one? CCc1nc2c(N)nc(C)c(C)c2n1CCCC(N)=O
Ans: 228 to 230 °C

Q: So what's the measured melting point for this one? CC(=O)Nc1nc(Cl)c2c(ncn2COC(COC(C)C)COC(C)C)n1
Ans: 73 to 75 °C

Q: So what's the measured melting point for this one? O=C(O)c1ccc(-c2csc(-c3ccccc3)n2)cc1
Ans: 245 to 248 °C

Q: So what's the measured melting point for this one? COc1ccc(C(=O)C=Cc2ccc([N+](=O)[O-])cc2)cc1
Ans: 171 to 173 °C

Q: So what's the measured melting point for this one? CC(C)n1nnnc1-c1ccc(N)c([N+](=O)[O-])c1
Ans: 126 to 128 °C

Q: So what's the measured melting point for this one? O=c1[nH]c2cccc(F)c2c(=O)n1CCCN1CC=C(c2ccc(Cl)cc2)CC1
Ans: 201 to 202 °C

* * *

Reported melting point values are given for each entry in this list.

• COc1ccc(CS[C@@H]2CN[C@H](C(=O)O)C2)cc1 = 198 to 200 °C
• CCc1nc2ccccc2n(-c2ccc(Cl)cc2)c1=O = 163 to 165 °C
• CC(=O)N1C(=O)c2cccnc2N(C2CC2)c2nc(Cl)cc(C)c21 = 204 to 206 °C
• Nc1ccccc1SCn1ccccc1=O = 130 to 133 °C
• Cc1noc(NS(=O)(=O)c2ccc(C(C)(C)C)cc2)c1C = 151 to 154 °C

Q: So what's the measured melting point for this one? CC(C)(C)C1CCC(=O)C(CC(=O)c2ccccc2)C1 (stereo not drawn)
Ans: 127 to 129 °C

Q: So what's the measured melting point for this one? CN1CCC(c2c[nH]c3ccc(SCc4ccccc4)cc23)CC1
Ans: 138 to 141 °C

Q: So what's the measured melting point for this one? COC(=O)NC(Cc1ccccc1)C1CC(Cc2ccccc2)=NO1 (stereo not drawn)
Ans: 87 to 88.5 °C

* * *

outcome.measure: melting point

Take a look at these entries with their results.
* O=C(c1ccc(Cl)cc1)c1cnc2ccc(Cl)cc2c1Cl | 170 °C
* Cc1cc2c(N3CCCC3C)ccc(C#N)c2o1 (stereo unspecified) | 78 to 80 °C
* CCN1CCC(N2C(=O)c3ccc([N+](=O)[O-])cc3C2=O)CC1 | 153 to 155 °C

Q: So what's the measured melting point for this one? Cc1ccc(-n2nc(C)c(CC(=O)O)c2C)cc1
Ans: 119 to 121 °C

Q: So what's the measured melting point for this one? CC1CC2C3CCC4=CC(=O)C=CC4(C)C3=CCC2(C)C1C(=O)CN1CCN(c2cc(NC34CC5CC(CC(C5)C3)C4)nc(NC34CC5CC(CC(C5)C3)C4)n2)CC1 (stereo unspecified)
Ans: 210 to 220 °C

Q: So what's the measured melting point for this one? CCCCS(=O)(=O)N(CCN(CC)CC)c1ccc(C(Cl)=C(c2ccccc2)c2ccccc2)cc1
Ans: 65 to 70 °C

Q: So what's the measured melting point for this one? Oc1ccc2c(c1)C13CCCCC1N(C2)N(CC1CC1)CC3 (single isomer, unassigned; (+))
Ans: 151 to 153 °C

* * *

Reported melting point values are given for each entry in this list.

Take a look at these entries with their results.
- CCOC(=O)C12CCC(=O)N1C(=O)CC2: 77 to 82 °C
- O=C(CCCCc1ccccc1)Nc1ccc(C(=O)NO)cc1: 189 to 191 °C
- C=CCONc1nc(NC=O)nc(Cl)c1NC=O: 170 to 181 °C
- N#Cc1ccc(-c2cc(Oc3cccc4ccc(N)nc34)ncn2)cc1: 234 to 236 °C
- CCn1c(C)c(C)cc(C(=O)O)c1=O: 164 to 165 °C
- CN1C(=O)C2(COc3cc4c(cc32)OCCO4)c2c(NC(=O)C3CCCC3)cccc21 (stereo not drawn): 196 to 198 °C
- CCNCCCC(O)c1ccc(NS(C)(=O)=O)cc1 (stereo not drawn): 174 to 176 °C
- CCC(=C(c1ccc(O)cc1)c1ccc(O)cc1)c1ccc(OCC(=O)O)c(OC)c1: 253 to 254 °C

Note: attention shifts to another entry.
Q: So what's the measured melting point for this one? CCCCn1cc(C(=O)C(=O)O)c2cc(-c3ccc(C(F)(F)F)cc3)ccc21
Ans: 149 °C

* * *

Reported melting point values are given for each entry in this list.

Take a look at these entries with their results.
* CS(=O)(=O)c1ccc(C2=NN(S(=O)(=O)c3ccc(I)cc3)CCC2)cc1 | 198 to 204 °C
* O=C(CCCCCCOc1ccccc1)c1nnc(CO)o1 | 83 to 85 °C
* Fc1ccc(N2CCN(CCCOc3cccc(-c4nnco4)c3)CC2)cc1 | 105 to 106 °C

Q: So what's the measured melting point for this one? Cn1c(=O)c(C(=O)O)c(-c2ccccc2Cl)c2ccncc21
Ans: > 250 °C

Q: So what's the measured melting point for this one? COC1CC2(C)C(CCC3C4CCC(C(C)=O)C4(C)CC(=O)C32)CC1O (stereo not drawn)
Ans: 163 to 164 °C

* * *

outcome.measure: melting point

Take a look at these entries with their results.
• COc1nc(NCn2nnc3ccccc32)nc(N(C)C)n1 = 222 to 224 °C
• CC(=O)OC1CSC(Oc2ccc(-c3ccnc(F)c3)nc2Cl)C(OC(C)=O)C1OC(C)=O (stereo not given) = 226 °C
• CCCCSc1nc(N(C)C(C)=O)c(C#N)s1 = 40 °C
• COCc1cc2c(s1)CCc1cc(=O)n(-c3ccc(C)cc3)nc1-2 = 132 to 133 °C

Q: So what's the measured melting point for this one? COC(=O)CCCc1cc2cc(Cl)ccc2n1S(=O)(=O)c1ccc2nc(NC(C)=O)sc2c1
Ans: 120 °C

Q: So what's the measured melting point for this one? CCNc1nc(N)nc2c1ncn2C1C=CC(CO)C1 (stereo not given)
Ans: 171 to 173 °C

Q: So what's the measured melting point for this one? CCOC(=O)c1ccccc1NC(=O)CN1C(=O)c2ccccc2C1=O
Ans: 187 °C

Q: So what's the measured melting point for this one? O=C(CC1CCOCC1)Nc1cccc2nc(N[C@@H]3CCc4ccccc43)ccc12
Ans: 211 °C

Q: So what's the measured melting point for this one? O=C(COc1ccccc1)NCCCn1ccnc1
Ans: 91 to 93 °C

Q: So what's the measured melting point for this one? CCCCCCCCNC(=O)/C=C\SC(=O)c1cc(Cl)cc(Cl)c1
Ans: 99 to 102 °C

Q: So what's the measured melting point for this one? Cn1c(COc2ccc(CC3SC(=O)NC3=O)cc2)nc2ccc(Oc3ccc(NC(=O)NC45CC6CC(CC(C6)C4)C5)cc3)cc21 (stereo not given)
Ans: 164 to 167 °C

* * *

Reported melting point values are given for each entry in this list.

Take a look at these entries with their results.
- Cc1cccc(-n2ncc(-c3ccc(S(C)(=O)=O)cc3)c(-c3ccc(F)cc3)c2=O)c1: 213 to 216 °C
- COC(=O)N(CO)c1ccc(OCc2nc3ccccc3s2)cc1C: 121 to 123 °C

Q: So what's the measured melting point for this one? CCOc1ccc2[nH]c3c([N+](=O)[O-])cc([N+](=O)[O-])c(Cl)c3c(=O)c2c1
Ans: 238 to 241 °C

Q: So what's the measured melting point for this one? NS(=O)(=O)c1ccc(-c2cccc(-c3nc(-c4ccc(Cl)s4)cc(C(F)(F)F)n3)c2)s1
Ans: 233 °C

Q: So what's the measured melting point for this one? CCOC(=O)c1ccc(NCCOc2ccc(Cl)cc2Cl)cc1
Ans: 111 to 113 °C

Q: So what's the measured melting point for this one? O=C(O)c1c(F)c(F)cc([N+](=O)[O-])c1F
Ans: 98 to 99 °C
